Hi there, I'd appreciate the recorded aptazyme ON/OFF ratio for every entry that follows.
B1: Pistol ribozyme (parent)
chain: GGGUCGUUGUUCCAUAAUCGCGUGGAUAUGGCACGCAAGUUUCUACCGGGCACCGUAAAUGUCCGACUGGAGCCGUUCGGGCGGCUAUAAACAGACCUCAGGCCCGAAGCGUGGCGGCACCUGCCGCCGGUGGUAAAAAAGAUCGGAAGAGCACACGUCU

- Variants of: B1
- protocol_description: aptazyme ON/OFF ratio, guanine; higher = stronger switching; co-transcriptional cleavage with and without guanine
Respond using a number only.

**Query** Item under review: U7G U10G . Reported aptazyme ON/OFF ratio?
**Result** 1.42

**Query** Could you do the same for U7A U10A U11A C13A , please?
**Result** 1.19

**Query** Could you do the same for U7G U8C G9C U10G C12A , please?
**Result** 1.13

**Query** Could you do the same for U7C U8C G9C U10C U11C C12G C13A , please?
**Result** 1.28

**Query** Could you do the same for U7G U8G G9C U10G U11A C12G , please?
**Result** 1.16

**Query** Could you do the same for U7A G9U U11G C12A C13G , please?
**Result** 1.36

**Query** Could you do the same for U7C U8G G9A U10C U11G C13U , please?
**Result** 1.41

**Query** Could you do the same for U7G U8G G9C U10A , please?
**Result** 1.58

**Query** Could you do the same for U7C U8G U10A U11C C12A C13G , please?
**Result** 1.05

**Query** Could you do the same for U7A U8C U10C , please?
**Result** 2.24

**Query** Could you do the same for U8A G9A U10C U11A C12G C13G , please?
**Result** 1.12

**Query** Could you do the same for U8C G9C U10C C12G C13U , please?
**Result** 1.08

**Query** Could you do the same for U7G U8A G9A U10A U11C C12A C13A , please?
**Result** 1.15

**Query** Could you do the same for U8A G9U U10C C12U C13G , please?
**Result** 1.07

**Query** Could you do the same for U8G U10G C12A C13U , please?
**Result** 1.17

**Query** Could you do the same for U7A U8G G9U U10G C12A , please?
**Result** 1.21

**Query** Could you do the same for U7A U8G U11A C12U , please?
**Result** 1.23

**Query** Could you do the same for U7C U8C G9U U11C C13A , please?
**Result** 1.02

**Query** Could you do the same for U7G U8G U10C C13G , please?
**Result** 1.17

**Query** Could you do the same for U7C G9U U10G U11A C12G C13U , please?
**Result** 1.12

**Query** Could you do the same for U8A G9C U10G U11A C12G , please?
**Result** 1.28

**Query** Could you do the same for U7G U8A G9A , please?
**Result** 2.45

**Query** Could you do the same for U7C U8A G9C U11A C12G C13A , please?
**Result** 1.13

**Query** Could you do the same for U8C G9C U10A U11C C12G C13G , please?
**Result** 1.16

**Query** Could you do the same for U8C G9A U10G U11G C13G , please?
**Result** 1.13

**Query** Could you do the same for U8A G9A U10G , please?
**Result** 1.46

**Query** Could you do the same for U8A G9U U10G U11G C12G C13G , please?
**Result** 1.32

**Query** Could you do the same for U7G U8A G9C U11A C12G , please?
**Result** 1.04

**Query** Could you do the same for U7C U8C G9C U10C U11A C12G C13G , please?
**Result** 1.13

**Query** Could you do the same for U7G U8G U10A U11A C12U C13G , please?
**Result** 1.22

**Query** Could you do the same for U7A U8C U10G U11A C12U C13U , please?
**Result** 1.2

**Query** Could you do the same for U7C U8C G9A U10G U11A C12A , please?
**Result** 1.37

**Query** Could you do the same for U7C U8C G9U U10A U11A C12G , please?
**Result** 1.2

**Query** Could you do the same for U7G U8G U10A U11G , please?
**Result** 1.65

**Query** Could you do the same for U7A U8C G9A U10C U11G C12A C13A , please?
**Result** 1.12

**Query** Could you do the same for U7A U8C G9C U10C C12A C13G , please?
**Result** 1.13

**Query** Could you do the same for U7C U8A G9U U10G U11G C12G C13G , please?
**Result** 1.14

**Query** Could you do the same for U8C U10A U11G C13G , please?
**Result** 1.29

**Query** Could you do the same for U7G U8A U10A U11C C12U , please?
**Result** 1.05

**Query** Could you do the same for U7C U8G U10A C12A C13U , please?
**Result** 1.23

**Query** Could you do the same for U7C U8A G9A U10A U11G C12A C13A , please?
**Result** 1.11

**Query** Could you do the same for U7A U8A G9C U10C U11C C12G C13U , please?
**Result** 1.03

**Query** Could you do the same for U7A U8A G9C U11C C12U C13G , please?
**Result** 1.11

**Query** Could you do the same for U7A U8G G9U U10A C12A , please?
**Result** 1.45

**Query** Could you do the same for U7A U8A G9U U11A C12U , please?
**Result** 1.15

**Query** Could you do the same for U7G U8C U10A U11C C12A C13A , please?
**Result** 1.13

**Query** Could you do the same for G9A U10A U11C C12U , please?
**Result** 1.13

**Query** Could you do the same for U7A U8A G9U U10C U11C C12G , please?
**Result** 1.06

**Query** Could you do the same for U8C G9U U10A U11G C13A , please?
**Result** 1.2

**Query** Could you do the same for U7A U10A U11A C13U , please?
**Result** 1.16

**Query** Could you do the same for U7C U8C G9U U10G U11C C13G , please?
**Result** 1.06

**Query** Could you do the same for U7A U8A U10A U11A C12U C13U , please?
**Result** 1.14

**Query** Could you do the same for U7C U8C G9U U10A C12U , please?
**Result** 1.17

**Query** Could you do the same for U7G U8G G9A U10A U11C C13G , please?
**Result** 1.06

**Query** Could you do the same for U7G U8A G9A U10C U11A C12A C13U , please?
**Result** 1.13

**Query** Could you do the same for U7A G9C U11C C13A , please?
**Result** 1.04

**Query** Could you do the same for U7G U8G U10C U11G C13G , please?
**Result** 1.21

**Query** Could you do the same for U8G G9C U10C U11C C12U C13G , please?
**Result** 1.04

**Query** Could you do the same for G9A U11G C13A , please?
**Result** 1.37

**Query** Could you do the same for U7A U8G G9U U11A C13G , please?
**Result** 1.25

**Query** Could you do the same for U8C G9C U10G U11C C12A C13A , please?
**Result** 1.19

**Query** Could you do the same for U7A U8C G9U U10C U11A C12G C13U , please?
**Result** 1.11

**Query** Could you do the same for U7C U8A C12A , please?
**Result** 1.3

**Query** Could you do the same for U7A U8A G9A U10G U11C C12G C13U , please?
**Result** 1.31

**Query** Could you do the same for G9U U11G C13G , please?
**Result** 1.21

**Query** Could you do the same for U7A U8A G9A U10C U11C C12A , please?
**Result** 1.18

**Query** Could you do the same for U8G G9C U10A U11A C13G , please?
**Result** 1.04

**Query** Could you do the same for U8A G9U U11A C12U C13G , please?
**Result** 1.09

**Query** Could you do the same for U7C U8A U10A U11A C12A , please?
**Result** 1.15

**Query** Could you do the same for U7G U8G G9C U10C C13A , please?
**Result** 1.44

**Query** Could you do the same for U8G G9U U10C C12A C13A , please?
**Result** 1.2

**Query** Could you do the same for U7A G9U C13U , please?
**Result** 1.35

**Query** Could you do the same for U7G U8A G9C U10A C12G , please?
**Result** 1.01

**Query** Could you do the same for U7A U8G U11C C12U C13G , please?
**Result** 1.03

**Query** Could you do the same for U7G G9C U10C U11C C13G , please?
**Result** 1.04

**Query** Could you do the same for U7A U8G G9C U10A U11G C12U C13U , please?
**Result** 1.35

**Query** Could you do the same for U7C G9A U10G U11G , please?
**Result** 1.09

**Query** Could you do the same for U7A G9C U10A U11A C12G C13G , please?
**Result** 1.1

**Query** Could you do the same for U7A U8G G9C U10A U11C C12A C13A , please?
**Result** 1.17

**Query** Could you do the same for U8G G9A U10G , please?
**Result** 2.04

**Query** Could you do the same for U7C G9U U10G C12G , please?
**Result** 1.12

**Query** Could you do the same for U7A U8A G9C U11G C12A , please?
**Result** 1.1

**Query** Could you do the same for U7C U10G U11A C12A , please?
**Result** 1.13

**Query** Could you do the same for U7G G9C U11A C12A C13A , please?
**Result** 1.35

**Query** Could you do the same for U11C C12U , please?
**Result** 1.57

**Query** Could you do the same for U7A U8C G9C U10A C12U C13A , please?
**Result** 1.05

**Query** Could you do the same for U7C U8G G9U U10A C12A C13G , please?
**Result** 1.15

**Query** Could you do the same for U7A U8C U10G C12G C13U , please?
**Result** 1.19

**Query** Could you do the same for U7C U8C G9C U11C C12G C13U , please?
**Result** 1.01

**Query** Could you do the same for U8G G9A U10C U11G , please?
**Result** 1.34

**Query** Could you do the same for U8G U10C U11C C13U , please?
**Result** 1.04
